- systemName: UDP-glucuronosyltransferase 1A4 (Homo sapiens)
- Sequence (P22310 whole entry): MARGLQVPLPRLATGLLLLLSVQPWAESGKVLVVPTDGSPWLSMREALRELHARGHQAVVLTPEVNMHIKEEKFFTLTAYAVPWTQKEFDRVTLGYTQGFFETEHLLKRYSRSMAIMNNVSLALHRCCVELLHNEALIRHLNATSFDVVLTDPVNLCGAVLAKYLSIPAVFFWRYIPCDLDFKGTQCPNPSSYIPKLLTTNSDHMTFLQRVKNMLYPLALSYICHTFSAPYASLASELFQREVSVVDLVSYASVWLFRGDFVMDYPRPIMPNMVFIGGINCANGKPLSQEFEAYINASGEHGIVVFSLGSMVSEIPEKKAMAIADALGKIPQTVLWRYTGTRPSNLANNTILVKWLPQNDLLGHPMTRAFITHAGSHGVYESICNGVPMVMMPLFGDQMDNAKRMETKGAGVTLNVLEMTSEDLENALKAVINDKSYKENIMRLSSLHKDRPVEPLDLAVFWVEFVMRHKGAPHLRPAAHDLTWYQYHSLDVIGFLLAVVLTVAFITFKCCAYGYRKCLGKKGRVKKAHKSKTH
- assayComment: Activity of human recombinant UGT1A4 expressed in baculovirus-infected insect cells assessed as enzyme-mediated glucuronidation per mg of protein after 10 mins in presence of UDPGA
- Format: ADME
readoutKind: Drug metabolism

Query: Give Drug metabolism for this entry on UDP-glucuronosyltransferase 1A4 (Homo sapiens): COc1ccc(C(=O)Nc2cccc(O)c2NC(=O)c2ccc(N3CCCN(C)CC3)cc2)cc1.O=C(O)CCC(=O)O
Reply: < 0.01 nmol/min/mg

====

- systemName: UDP-glucuronosyltransferase 1A7 (Homo sapiens, UniProt Q9HAW7)
- Sequence (Q9HAW7 whole entry): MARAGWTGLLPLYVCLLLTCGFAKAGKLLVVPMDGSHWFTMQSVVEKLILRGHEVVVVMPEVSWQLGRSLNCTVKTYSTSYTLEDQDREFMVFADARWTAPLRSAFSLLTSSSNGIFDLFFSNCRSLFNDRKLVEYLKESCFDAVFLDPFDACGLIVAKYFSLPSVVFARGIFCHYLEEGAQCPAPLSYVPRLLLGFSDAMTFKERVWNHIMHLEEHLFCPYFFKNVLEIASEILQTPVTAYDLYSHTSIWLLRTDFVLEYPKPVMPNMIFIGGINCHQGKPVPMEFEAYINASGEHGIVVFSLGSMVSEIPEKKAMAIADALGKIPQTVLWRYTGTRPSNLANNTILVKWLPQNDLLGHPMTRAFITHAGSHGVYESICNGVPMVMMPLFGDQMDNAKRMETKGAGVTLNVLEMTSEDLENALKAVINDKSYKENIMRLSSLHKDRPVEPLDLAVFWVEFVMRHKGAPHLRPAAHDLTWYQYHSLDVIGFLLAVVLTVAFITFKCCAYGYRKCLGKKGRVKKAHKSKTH
- assayComment: Activity of human recombinant UGT1A7 expressed in baculovirus-infected insect cells assessed as enzyme-mediated glucuronidation per mg of protein after 10 mins in presence of UDPGA
- Format: ADME
readoutKind: Drug metabolism (nmol/min/mg)
API: value field is a number in nmol/min/mg; no unit string.

Query: Provide one value: measured Drug metabolism of COc1ccc(C(=O)Nc2cccc(O)c2NC(=O)c2ccc(N3CCCN(C)CC3)cc2)cc1.O=C(O)CCC(=O)O
Reply: 0.251

====

- systemName: UDP-glucuronosyltransferase 1A1 (Homo sapiens)
- Sequence (P22309 whole entry): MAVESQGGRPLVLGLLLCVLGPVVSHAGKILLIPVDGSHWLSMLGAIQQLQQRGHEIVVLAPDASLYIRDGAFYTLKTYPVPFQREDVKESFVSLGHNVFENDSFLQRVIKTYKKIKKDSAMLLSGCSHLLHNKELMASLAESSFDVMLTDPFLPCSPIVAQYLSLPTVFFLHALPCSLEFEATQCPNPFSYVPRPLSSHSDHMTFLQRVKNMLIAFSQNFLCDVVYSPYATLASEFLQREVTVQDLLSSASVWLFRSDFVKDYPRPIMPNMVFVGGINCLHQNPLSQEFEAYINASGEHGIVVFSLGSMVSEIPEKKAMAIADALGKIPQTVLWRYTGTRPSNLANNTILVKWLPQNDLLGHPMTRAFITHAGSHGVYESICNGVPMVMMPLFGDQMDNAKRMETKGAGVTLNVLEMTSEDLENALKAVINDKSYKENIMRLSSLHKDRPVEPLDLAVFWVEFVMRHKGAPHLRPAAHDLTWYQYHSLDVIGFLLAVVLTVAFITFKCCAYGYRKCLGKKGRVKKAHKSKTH
- assayComment: Activity of human recombinant UGT1A1 expressed in baculovirus-infected insect cells assessed as enzyme-mediated glucuronidation per mg of protein after 10 mins in presence of UDPGA
- Format: ADME
readoutKind: Drug metabolism

Query: Give Drug metabolism for this entry on UDP-glucuronosyltransferase 1A1 (Homo sapiens): COc1ccc(C(=O)Nc2cccc(O)c2NC(=O)c2ccc(N3CCCN(C)CC3)cc2)cc1.O=C(O)CCC(=O)O
Reply: < 0.01 nmol/min/mg

====

- assayComment: Drug metabolism in human liver microsomes assessed as glucuronidation at 30 uM after 10 mins by LC-MS/MS analysis relative to vehicle-treated control in presence of propofol and UDPGA
- Assay type: ADME
- studyConditions: with propofol, read-out: Drug metabolism
readoutKind: activity at 10 min, 30 µM (%)
API: value field is a number in %; no unit string.

Query: Provide one value: measured activity at 10 min, 30 µM of COc1ccc(C(=O)Nc2cccc(O)c2NC(=O)c2ccc(N3CCCN(C)CC3)cc2)cc1.O=C(O)CCC(=O)O
Reply: 9

====

- systemName: UDP-glucuronosyltransferase 1A9 (Homo sapiens)
- Sequence (O60656 whole entry): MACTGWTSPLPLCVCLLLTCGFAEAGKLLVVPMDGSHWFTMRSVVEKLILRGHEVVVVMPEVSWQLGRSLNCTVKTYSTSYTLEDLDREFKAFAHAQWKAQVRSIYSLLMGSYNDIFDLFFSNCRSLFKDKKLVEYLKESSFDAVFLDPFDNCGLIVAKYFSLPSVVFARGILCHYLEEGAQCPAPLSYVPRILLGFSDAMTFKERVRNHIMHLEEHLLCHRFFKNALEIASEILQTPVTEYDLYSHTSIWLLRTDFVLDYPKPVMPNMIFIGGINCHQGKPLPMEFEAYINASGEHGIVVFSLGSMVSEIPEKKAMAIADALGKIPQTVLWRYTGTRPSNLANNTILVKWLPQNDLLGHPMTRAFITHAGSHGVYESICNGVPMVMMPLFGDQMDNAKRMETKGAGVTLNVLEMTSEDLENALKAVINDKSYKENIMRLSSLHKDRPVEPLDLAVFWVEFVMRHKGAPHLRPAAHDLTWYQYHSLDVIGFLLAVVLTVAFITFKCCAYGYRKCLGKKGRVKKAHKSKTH
- assayComment: Activity of recombinant human UGT1A9 expressed in baculovirus-infected insect cells assessed as enzyme-mediated glucuronidation per mg of protein after 5 mins in presence of UDPGA
- Type: ADME
readoutKind: Drug metabolism (nmol/min/mg)
API: value field is a number in nmol/min/mg; no unit string.

Query: Provide one value: measured Drug metabolism of COc1ccc(C(=O)Nc2cccc(O)c2NC(=O)c2ccc(N3CCCN(C)CC3)cc2)cc1.O=C(O)CCC(=O)O
Reply: 2.43

====

- Tested on: Liver microsome
- assayComment: Intrinsic clearance in human liver microsomes assessed per mg of protein at 1 to 250 uM after 10 mins in presence of UDPGA
- Assay type: ADME
readoutKind: CLint (µL/min/mg)
API: value field is a number in µL/min/mg; no unit string.

Query: Provide one value: measured CLint of COc1ccc(C(=O)Nc2cccc(O)c2NC(=O)c2ccc(N3CCCN(C)CC3)cc2)cc1.O=C(O)CCC(=O)O
Reply: 8.71

====

- assayComment: Drug metabolism in human intestinal microsomes assessed as glucuronidation after 5 mins by Michaelis-Menten plot analysis in presence of UDPGA
- Assay type: ADME, Intestine, Microsome
readoutKind: Km at 5 min (µM)
API: value field is a number in µM; no unit string.

Query: Provide one value: measured Km at 5 min of COc1ccc(C(=O)Nc2cccc(O)c2NC(=O)c2ccc(N3CCCN(C)CC3)cc2)cc1.O=C(O)CCC(=O)O
Reply: 27.3
